# TGT: human leukocyte elastase (HLE) (Homo sapiens, UniProt P08246)
# Sequence (P08246 30-267): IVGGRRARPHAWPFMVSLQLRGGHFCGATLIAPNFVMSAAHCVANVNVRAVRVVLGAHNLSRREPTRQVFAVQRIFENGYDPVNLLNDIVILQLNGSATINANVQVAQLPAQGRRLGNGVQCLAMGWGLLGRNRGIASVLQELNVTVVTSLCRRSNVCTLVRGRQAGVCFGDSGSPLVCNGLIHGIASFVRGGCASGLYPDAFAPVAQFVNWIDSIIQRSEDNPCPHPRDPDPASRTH
# MEASUREMENT PROTOCOL: HLE amidolytic activity (methoxysuccinyl-Ala-Ala-Pro-Val-p-nitroanilide)
# Format: biochemical
# STATED CONDITIONS: Dixon and Cornish-Bowden plots; FIGS. 3-5; read-out: apparent K1, inhibition of amidolysis
PROPERTY MEASURED: Ki

COMPOUND | Ki
C[C@H]1c2cccc(O)c2C(=O)C2=C(O)[C@]3(O)C(=O)C(C(N)=O)=C(O)[C@@H](N(C)C)[C@@H]3[C@@H](O)[C@@H]21 | > 300 µM

Could you now consider this next compound?
## Task Using the record for NC(=O)C1=C(O)C2(O)C(=O)C3=C(O)c4c(O)cccc4CC3CC2CC1=O (centres unmarked) , report its Ki.
## Result 18 to 40 µM

====

Below is a list of entries, each paired with its recorded Ki value.
# TGT: human leukocyte elastase (HLE) (Homo sapiens)
# MEASUREMENT PROTOCOL: HLE amidolytic activity (methoxysuccinyl-Ala-Ala-Pro-Val-p-nitroanilide)
# Type: biochemical
# STATED CONDITIONS: 2% DMSO, no detergent; 100 μM through 300 μM substrate; Dixon plot; read-out: Ki for inhibition of amidolytic activity of HLE

COMPOUND | Ki
NC(=O)C1=C(O)C2(O)C(=O)C3=C(O)c4c(O)cccc4CC3CC2CC1=O (centres unmarked) | 25 to 40 µM

## Task Tell me reported Ki for C[C@H]1c2cccc(O)c2C(=O)C2=C(O)[C@]3(O)C(=O)C(C(N)=O)=C(O)[C@@H](N(C)C)[C@@H]3[C@@H](O)[C@@H]21 , tested with human leukocyte elastase (HLE) (Homo sapiens).
## Result ~300 µM

====

# Tested on: human neutrophils (live PMN's)
# MEASUREMENT PROTOCOL: Neutrophil (PMN + 0.5 nM PMA)-mediated R22-ECM hydrolysis (3H-proline cpm released in 6 h)
# Format: cell-based
# STATED CONDITIONS: 5 μm; control = hydrolysis in absence of any inhibitor normalized to 100%; 6 h at 37° C.
PROPERTY MEASURED: ECM HYDROLYSIS (% CONTROL)
Supply the numeric figure in % CONTROL, leaving out any unit text.

Example entries and their recorded answers appear below.
COMPOUND | MEASURED
CC1(O)c2cccc(O)c2C(=O)C2=C(O)C3(O)C(=O)C(C(N)=O)=C(O)C(O)C3CC21 (centres unmarked) | 109
CC1(O)c2cccc(O)c2C(=O)C2=C(O)C3C(=O)C(C(N)=O)=C(O)CC3CC21 (centres unmarked) | 97

## Task Using the record for C[C@H]1c2cccc(O)c2C(O)=C2C(=O)[C@]3(O)C(O)=C(C(N)=O)C(=O)C[C@@H]3[C@@H](O)[C@@H]21 , report its ECM HYDROLYSIS (% CONTROL).
## Result 96

## Task What would you report for CC1(O)c2c(Cl)ccc(O)c2C(=O)C2=C(O)C3(O)C(=O)C(C(N)=O)=C(O)CC3CC21 (centres unmarked) ?
## Result 90

## Task What would you report for CC1(O)c2cccc(O)c2C(=O)C2=C(O)C3(O)C(=O)C(C(N)=O)=C(O)CC3CC21 (centres unmarked) ?
## Result 93
